System: SN12C renal
Test: NCI tumour cell line growth inhibition, 48 h; in the data active = GI50 below about 0.43 µM; inactive = the rest
Your answer must be one of the following: active, inactive

- COMPOUND: "O=C(/C=C/c1ccc(O)c(O)c1)NCc1c[nH]c2ccccc12"
  LABEL CLASS: "inactive"
- COMPOUND: "CN(C)CCNC(=O)c1ccc(-c2nc3ccc4[nH]ncc4c3c3c2C2CCC3C2)cc1 (stereo not drawn)"
  LABEL CLASS: "inactive"
- COMPOUND: "[O-]c1ccccc1C=Nc1ccc2c(c1)CCC2.[O-]c1ccccc1C=Nc1ccc2c(c1)CCC2.[O]=[U+2]=[O]"
  LABEL CLASS: "inactive"
- COMPOUND: "COC(=O)C12CC(NC(=O)c3csc([C@@H](C[C@H](C(C)C)N(C)C(=O)[C@@H](NC(=O)[C@H]4CCCCN4C)C4CC4)OC(C)=O)n3)(C1)C2"
  LABEL CLASS: "active"
- COMPOUND: "CCCCCCCCOC(=O)c1c(C)[nH]c(/C=C2\\N=C(c3ccc[nH]3)C=C2OC)c1C"
  LABEL CLASS: "active"
- COMPOUND: "Cc1ccc2nc(-c3ccc(OCC(=O)N=Nc4c(O)[nH]c5ccccc45)cc3)[nH]c2c1"
  LABEL CLASS: "inactive"
- COMPOUND: "CC[C@@]1(OC(=O)CN)C(=O)OCc2c1cc1n(c2=O)Cc2c-1nc1cc3c(cc1c2CCl)OCO3"
  LABEL CLASS: "active"

Lab note: next compound to report on.
Query :: State the result this test recorded for CN1CCN(CCOc2ccc(-c3cnc4c(-c5cccc(F)c5)cnn4c3)cc2)CC1 .
Result :: inactive
